- DETAILS: 2 h, 10 μM
// assign fulfilled if Prodrug (%) remaining, Rat Plasma falls strictly below 20%, else not fulfilled (ties count as not fulfilled)

{"columns": ["COMPOUND", "ANSWER LABEL"],
 "data": [
  ["CCCCC(CC)C(=O)OC1=C[C@@H]2N(C)CC[C@]2(c2ccc(OC)c(OC)c2)CC1 (stereo partly shown)", "fulfilled"],
  ["CCC(C)(C)C(=O)OC1=C[C@@H]2N(C)CC[C@]2(c2ccc(OC)c(OC)c2)CC1", "fulfilled"],
  ["CCCC(C)(C)C(=O)OC1=C[C@@H]2N(C)CC[C@]2(c2ccc(OC)c(OC)c2)CC1", "not fulfilled"],
  ["CCC(C)(CC)C(=O)OC1=C[C@@H]2N(C)CC[C@]2(c2ccc(OC)c(OC)c2)CC1", "not fulfilled"],
  ["COc1ccc([C@@]23CCC(OC(=O)c4cccc(C)c4)=C[C@@H]2N(C)CC3)cc1OC", "fulfilled"],
  ["COc1ccc([C@@]23CCC(OC(=O)c4c(C)cc(C)cc4C)=C[C@@H]2N(C)CC3)cc1OC", "not fulfilled"],
  ["COCCCCC(=O)OC1=C[C@@H]2N(C)CC[C@]2(c2ccc(OC)c(OC)c2)CC1", "fulfilled"]
]}

----------
Documented Human Plasma Prodrug (%) across a set of compounds
- ASSAY COMMENT: Plasma Stability Assay of Example A3, human plasma
- DETAILS: 30 min; 5 μM, 37° C.; % of prodrug compound remaining

{"columns": ["COMPOUND", "UNIT LABEL", "SIGN QUALIFIER", "Human Plasma Prodrug (%)"],
 "data": [
  ["COc1ccc([C@@]23CCC(OC(=O)c4ccc(C#N)cc4)=C[C@@H]2N(C)CC3)cc1OC", "%", "=", 72],
  ["COc1ccc([C@@]23CCC(OC(=O)c4ccc(N(C)C)cc4)=C[C@@H]2N(C)CC3)cc1OC", "%", ">", 99],
  ["COc1ccc([C@@]23CCC(OC(=O)c4ccc(C(F)(F)F)cc4)=C[C@@H]2N(C)CC3)cc1OC", "%", "=", 84.5],
  ["C/C=C(\\C)C(=O)OC1=C[C@@H]2N(C)CC[C@]2(c2ccc(OC)c(OC)c2)CC1", "%", "=", 35.1]
]}

----------
Documented Condition 1 Conversion (%) across a set of compounds
- Format: physicochemical
- DETAILS: SGF with pepsin, pH 1.5, 37° C., 0.5 mM; time 5 min
OBSERVED PROPERTY: Condition 1 Conversion (%)

{"columns": ["COMPOUND", "OBSERVED PROPERTY", "UNIT LABEL", "EXPERIMENTAL RESULT"],
 "data": [
  ["CCCC1CO[C@@]2(CC[C@@]3(c4ccc(OC)c(OC)c4)CCN(C)C3C2)O1 (some centres unmarked)", "Condition 1 Conversion (%)", "%", 0],
  ["COc1ccc([C@@]23CCC(=NOCC(=O)OC(C)(C)C)C[C@@H]2N(C)CC3)cc1OC", "Condition 1 Conversion (%)", "%", 0],
  ["CCC(=O)OC1=C[C@@H]2N(C)CC[C@]2(c2ccc(OC)c(OC)c2)CC1", "Condition 1 Conversion (%)", "%", 0],
  ["COc1ccc([C@@]23CCC(=NNc4ccc(Cl)cc4)C[C@@H]2N(C)CC3)cc1OC", "Condition 1 Conversion (%)", "%", 0],
  ["C=C(C)C(=O)OC1=C[C@@H]2N(C)CC[C@]2(c2ccc(OC)c(OC)c2)CC1", "Condition 1 Conversion (%)", "%", 0],
  ["COc1ccc([C@@]23CCC(=NNCc4ccccn4)C[C@@H]2N(C)CC3)cc1OC", "Condition 1 Conversion (%)", "%", 100],
  ["COc1ccc([C@@]23CCC(=NNC(=O)Nc4ccc(S(C)(=O)=O)cc4)C[C@@H]2N(C)CC3)cc1OC", "Condition 1 Conversion (%)", "%", 65.2],
  ["COc1ccc([C@@]23CCC(=NOC(C)(C)C)C[C@@H]2N(C)CC3)cc1OC", "Condition 1 Conversion (%)", "%", 0]
]}

----------
- Type: physicochemical
- DETAILS: DI water, 25° C., 0.5 mM; time 4 h
OBSERVED PROPERTY: Condition 2 Conversion (%)

{"columns": ["COMPOUND", "EXPERIMENTAL RESULT"],
 "data": [
  ["COc1ccc([C@@]23CCC(=NNC(C)=O)C[C@@H]2N(C)CC3)cc1OC [Compound 222]", 100],
  ["COc1ccc([C@@]23CCC(=NNC(=O)C(=O)O)C[C@@H]2N(C)CC3)cc1OC [Compound 241]", 86],
  ["COc1ccc([C@@]23CCC(=NNc4ccc(Cl)cc4)C[C@@H]2N(C)CC3)cc1OC [Compound 221]", 0],
  ["COc1ccc([C@@]23CCC(=NNC(=O)Nc4ccc(C(=O)O)cc4)C[C@@H]2N(C)CC3)cc1OC (racemic) [Compound 259]", 4.3],
  ["COc1ccc([C@@]23CCC(=NNC(=O)c4ccc(Cl)cc4)C[C@@H]2N(C)CC3)cc1OC [Compound 240]", 54.2],
  ["COc1ccc([C@@]23CCC(=NOc4ccccc4)C[C@@H]2N(C)CC3)cc1OC [Compound 207]", 0],
  ["COc1ccc([C@@]23CCC(=NNc4ncccc4C)C[C@@H]2N(C)CC3)cc1OC [Compound 364]", 47],
  ["COc1ccc([C@@]23CCC(OC(C)=O)=C[C@@H]2N(C)CC3)cc1OC [Compound 026]", 0],
  ["COc1ccc([C@@]23CCC(=NNC(=O)C45CC6CC(CC(C6)C4)C5)C[C@@H]2N(C)CC3)cc1OC [Compound 271]", 94.5],
  ["COc1ccc([C@@]23CCC(=NOCC(=O)O)C[C@@H]2N(C)CC3)cc1OC [Compound 201]", 0],
  ["COc1ccc([C@@]23CCC(=NNCc4cccc(C)c4)C[C@@H]2N(C)CC3)cc1OC [Compound 367]", 13.32],
  ["COc1ccc([C@@]23CCC(=NOCC4CC4)C[C@@H]2N(C)CC3)cc1OC [Compound 205]", 0],
  ["COc1ccc([C@@]23CCC(=NNC(=O)Nc4cccnc4)C[C@@H]2N(C)CC3)cc1OC [Compound 299]", 8],
  ["C=C(C)C(=O)OC1=C[C@@H]2N(C)CC[C@]2(c2ccc(OC)c(OC)c2)CC1 [Compound 315]", 0],
  ["COc1ccc([C@@]23CCC(=NOC4CCCCO4)C[C@@H]2N(C)CC3)cc1OC (stereo partly drawn) [Compound 206]", 0],
  ["COc1ccc([C@@]23CCC(=NNC(=O)CC(CC(=O)O)CC(C)C)C[C@@H]2N(C)CC3)cc1OC (stereo partly drawn) [Compound 242]", 55.46],
  ["COc1ccc([C@@]23CCC(=NNC(=O)COc4ccccc4)C[C@@H]2N(C)CC3)cc1OC [Compound 223]", 50.1],
  ["COc1ccc([C@@]23CCC(=NOCc4cccnc4)C[C@@H]2N(C)CC3)cc1OC [Compound 209]", 0],
  ["COc1ccc(NC(=O)NN=C2CC[C@@]3(c4ccc(OC)c(OC)c4)CCN(C)[C@H]3C2)cc1 [Compound 254]", 16.2],
  ["COc1ccc([C@@]23CCC(=NOCCOc4ccccc4)C[C@@H]2N(C)CC3)cc1OC [Compound 234]", 0],
  ["COc1ccc([C@@]23CC/C(=N\\NC(=O)NC[C@H]4CC[C@H](C(=O)O)CC4)C[C@@H]2N(C)CC3)cc1OC [Compound 258]", 0],
  ["CCC(=O)OC1=C[C@@H]2N(C)CC[C@]2(c2ccc(OC)c(OC)c2)CC1 [Compound 317]", 0],
  ["COc1ccc([C@@]23CCC(=NOCCON=C4CC[C@@]5(c6ccc(OC)c(OC)c6)CCN(C)[C@H]5C4)C[C@@H]2N(C)CC3)cc1OC [Compound 210]", 0],
  ["COc1ccc([C@@]23CC/C(=N\\NC(=O)C4(C(=O)O)CC4)C[C@@H]2N(C)CC3)cc1OC [Compound 243]", 27.04],
  ["COc1ccc([C@@]23CC/C(=N/OC(C)(C)OC)C[C@@H]2N(C)CC3)cc1OC [Compound 219]", 0],
  ["COc1ccc([C@@]23CC/C(=N\\OC(C)(C)OC)C[C@@H]2N(C)CC3)cc1OC [Compound 204]", 0],
  ["COc1ccc([C@@]23CCC(=NNc4ccc(F)cc4)C[C@@H]2N(C)CC3)cc1OC [Compound 361]", 45],
  ["COc1ccc([C@@]23CC/C(=N/OC45CC6CC(CC(C6)C4)C5)C[C@@H]2N(C)CC3)cc1OC [Compound 274]", 0],
  ["COc1ccc([C@@]23CC/C(=N\\NC(=O)c4ccccc4C(=O)O)C[C@@H]2N(C)CC3)cc1OC [Compound 244]", 24.59],
  ["COc1ccc([C@]23CCN(C)[C@H]2CC(OC)(OC)CC3)cc1OC (stereo in doubt) [Compound 190]", 0]
]}
